Measured EC50 accompanies every entry in the list below.
# test_system: T1, human Nectin-4 extracellular antigen hNectin-4-His (human, UniProt Q96NY8 32-349)
# T1 construct: C-terminal 8xHis tag included
# T1 sequence: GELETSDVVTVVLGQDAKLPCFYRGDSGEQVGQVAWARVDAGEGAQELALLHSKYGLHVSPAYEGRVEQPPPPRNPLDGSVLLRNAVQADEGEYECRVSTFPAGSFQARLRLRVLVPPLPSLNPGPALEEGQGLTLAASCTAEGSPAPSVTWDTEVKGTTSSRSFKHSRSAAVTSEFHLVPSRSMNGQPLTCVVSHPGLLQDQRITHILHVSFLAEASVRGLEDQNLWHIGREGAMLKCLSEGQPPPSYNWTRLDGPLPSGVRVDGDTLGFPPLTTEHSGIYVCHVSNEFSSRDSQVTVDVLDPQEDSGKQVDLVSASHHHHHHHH
# protocol_summary: ELISA, coated hNectin-4-His
Answer with the number, then the unit.

1) antibody 1F3-1H3 (antibody, human IgG1, kappa, V domains shown) VH: EVQLVESGGGLVQPGGSLRLSCAASGFNFYNYGMSWVRQAPGKGLEWVSGIKPHSDVAHYADSVKGRFTISRDNSKNTLYLQMNSLRAEDTAVYYCARAELLAFDVYTASDYWGQGTLVTVSS VL: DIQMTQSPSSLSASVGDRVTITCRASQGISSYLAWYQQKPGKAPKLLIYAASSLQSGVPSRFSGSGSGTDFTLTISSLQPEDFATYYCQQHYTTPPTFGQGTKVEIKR :: 0.008 µg/mL

Could you now look at the following binder, please?
Note to self: EC50 recorded for antibody 1F3-1E1 (antibody, human IgG1, kappa, V domains shown) VH: EVQLVESGGGLVQPGGSLRLSCAASGFSFDDYAMSWVRQAPGKGLEWVSIIYPTGSTNYYADSVKGRFTISRDNSKNTLYLQMNSLRAEDTAVYYCARAELLAFDVYTASDYWGQGTLVTVSS VL: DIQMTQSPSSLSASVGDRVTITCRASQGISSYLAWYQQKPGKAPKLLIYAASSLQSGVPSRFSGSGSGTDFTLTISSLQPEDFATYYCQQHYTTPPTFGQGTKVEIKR was 0.017 µg/mL
